- TESTED ON: laminin binding to heparin
- PROCEDURE SUMMARY: Inhibition of 125I-laminin binding to heparin-BSA
- PROTOCOL CONDITIONS: Table 2, free peptide
Peptide text beside a SMILES is read from it.
MEASURE: IC50 (µM)
Answer in µM, number only, no unit symbol.

CC(C)[C@H](NC(=O)[C@H](CO)NC(=O)[C@@H](N)CO)C(=O)N[C@H](C(=O)N[C@@H](CS)C(=O)NCC(=O)O)[C@@H](C)O [Peptide 237, SSVTCG] (H-SSVTCG-OH)
100

Let us examine a further case.
Lookup: Tell us which IC50 value is on record for CC[C@H](C)[C@H](NC(=O)[C@H](CC(=O)O)NC(=O)[C@H](Cc1c[nH]c2ccccc12)NC(=O)[C@@H]1CCCN1C(=O)[C@H](CO)NC(=O)[C@H](Cc1c[nH]c2ccccc12)NC(=O)[C@@H]1CCCN1C(=O)CN)C(=O)N[C@@H](CS)C(=O)N[C@@H](CO)C(=O)N[C@H](C(=O)N[C@H](C(=O)O)[C@@H](C)O)C(C)C [Peptide 186, GPWSPWDICSVT] (H-GPWSPWDICSVT-OH)
Found: 15

###

Below is a list of entries, each paired with its recorded pIC50 value.
- TESTED ON: laminin binding to sulfatide
- PROCEDURE SUMMARY: Inhibition of 125I-laminin binding to sulfatide
- Design: species or system mouse
- PROTOCOL CONDITIONS: Table 2, free peptide
Peptide text beside a SMILES is read from it.
pIC50 here is simply -log10 of the concentration when that concentration is written in mol/L.

N[C@@H](Cc1c[nH]c2ccccc12)C(=O)N[C@@H](CO)C(=O)N1CCC[C@H]1C(=O)N[C@@H](Cc1c[nH]c2ccccc12)C(=O)N[C@@H](CO)C(=O)N[C@@H](CO)C(=O)N[C@@H](CS)C(=O)N[C@@H](CO)C(=O)O [Peptide 240, WSPWSSCS] (H-WSPWSSCS-OH)
4.00

Lookup: Please report pIC50 for the following compound: C[C@@H](O)[C@H](NC(=O)[C@H](CO)NC(=O)[C@H](CS)NC(=O)[C@H](CO)NC(=O)[C@@H](NC(=O)[C@H](Cc1c[nH]c2ccccc12)NC(=O)[C@H](CCC(=O)O)NC(=O)[C@H](CO)NC(=O)[C@H](Cc1c[nH]c2ccccc12)NC(=O)[C@@H]1CCCN1C(=O)[C@@H](N)CO)[C@@H](C)O)C(=O)N[C@@H](CO)C(=O)O [Peptide 184, SPWSEWTSCSTS] (H-SPWSEWTSCSTS-OH)
Found: 4.38

Lookup: # return recorded pIC50 for entry CC(C)[C@H](NC(=O)[C@H](CO)NC(=O)[C@H](CS)NC(=O)[C@H](CO)NC(=O)[C@H](CO)NC(=O)[C@H](Cc1c[nH]c2ccccc12)NC(=O)[C@@H]1CCCN1C(=O)[C@H](CO)NC(=O)[C@@H](N)Cc1c[nH]c2ccccc12)C(=O)N[C@H](C(=O)O)[C@@H](C)O [Peptide 241, WSPWSSCSVT] (H-WSPWSSCSVT-OH)
Found: 4.30

Lookup: Give recorded pIC50. CC(C)[C@H](NC(=O)[C@H](CO)NC(=O)[C@@H](N)CS)C(=O)N[C@H](C(=O)N[C@@H](CS)C(=O)NCC(=O)O)[C@@H](C)O [Peptide 187, CSVTCG] (H-CSVTCG-OH)
Found: 5.41

Lookup: Report measured pIC50; entry is CC[C@H](C)[C@H](NC(=O)[C@H](CC(=O)O)NC(=O)[C@H](Cc1c[nH]c2ccccc12)NC(=O)[C@@H]1CCCN1C(=O)[C@H](CO)NC(=O)[C@H](Cc1c[nH]c2ccccc12)NC(=O)[C@@H]1CCCN1C(=O)CN)C(=O)N[C@@H](CS)C(=O)N[C@@H](CO)C(=O)N[C@H](C(=O)N[C@H](C(=O)O)[C@@H](C)O)C(C)C [Peptide 186, GPWSPWDICSVT] (H-GPWSPWDICSVT-OH)
Found: 4.46

Lookup: Specify reported pIC50 for the compound shown: CC(C)[C@H](NC(=O)[C@H](CO)NC(=O)[C@@H](N)CO)C(=O)N[C@H](C(=O)N[C@@H](CS)C(=O)NCC(=O)O)[C@@H](C)O [Peptide 237, SSVTCG] (H-SSVTCG-OH)
Found: 4.07

Lookup: Give me measured pIC50, please, for this compound: N[C@@H](CO)C(=O)N[C@@H](Cc1c[nH]cn1)C(=O)N[C@@H](Cc1c[nH]c2ccccc12)C(=O)N[C@@H](CO)C(=O)N1CCC[C@H]1C(=O)N[C@@H](Cc1c[nH]c2ccccc12)C(=O)N[C@@H](CO)C(=O)N[C@@H](CO)C(=O)O [Peptide 239, SHWSPWSS] (H-SHWSPWSS-OH)
Found: 4.92

###

- TESTED ON: thrombospondin binding to sulfatide
- PROCEDURE SUMMARY: Inhibition of 125I-thrombospondin binding to sulfatide
- PROTOCOL CONDITIONS: Table 1, free peptide
Peptide text beside a SMILES is read from it.
MEASURE: IC50

Lookup: Name the recorded IC50 of the compound listed here: C[C@H](NC(=O)[C@H](Cc1c[nH]cn1)NC(=O)[C@@H](N)CO)C(=O)N[C@@H](CO)C(=O)N1CCC[C@H]1C(=O)N[C@@H](C)C(=O)N[C@@H](CO)C(=O)N[C@@H](CO)C(=O)O [Peptide 244, SHASPASS] (H-SHASPASS-OH)
Found: > 200 µM

Lookup: Please give measured IC50 of the following entry: CC(C)[C@H](NC(=O)[C@H](CO)NC(=O)[C@@H](N)CS)C(=O)N[C@H](C(=O)O)[C@@H](C)O [Peptide 234, CSVT] (H-CSVT-OH)
Found: > 200 µM

Lookup: Look up and report measured IC50 for this entry: CC(C)[C@H](NC(=O)[C@H](CO)NC(=O)[C@@H](N)CO)C(=O)N[C@H](C(=O)N[C@@H](CS)C(=O)NCC(=O)O)[C@@H](C)O [Peptide 237, SSVTCG] (H-SSVTCG-OH)
Found: 30 µM

###

IC50 by entry:
- TESTED ON: thrombospondin binding to heparin
- PROCEDURE SUMMARY: Inhibition of 125I-thrombospondin binding to immobilized heparin-BSA
- Parameters: species or system human
- PROTOCOL CONDITIONS: Table 1, free peptide; read-out: IC50 Heparin Binding, inhibition of 125I-thrombospondin binding
Peptide text beside a SMILES is read from it.
Write down the numeric answer in µM and omit the unit.

Reference set (5 entries):
N[C@@H](CO)C(=O)N[C@@H](Cc1c[nH]cn1)C(=O)N[C@@H](Cc1c[nH]c2ccccc12)C(=O)N[C@@H](CO)C(=O)N1CCC[C@H]1C(=O)N[C@@H](Cc1c[nH]c2ccccc12)C(=O)N[C@@H](CO)C(=O)N[C@@H](CO)C(=O)O [Peptide 239, SHWSPWSS] (H-SHWSPWSS-OH)
5.2
N[C@@H](Cc1c[nH]c2ccccc12)C(=O)N[C@@H](CO)C(=O)N1CCC[C@H]1C(=O)N[C@@H](Cc1c[nH]c2ccccc12)C(=O)N[C@@H](CO)C(=O)N[C@@H](CO)C(=O)N[C@@H](CS)C(=O)N[C@@H](CO)C(=O)O [Peptide 240, WSPWSSCS] (H-WSPWSSCS-OH)
66
C[C@@H](O)[C@H](NC(=O)[C@H](CO)NC(=O)[C@H](CS)NC(=O)[C@H](CO)NC(=O)[C@@H](NC(=O)[C@H](Cc1c[nH]c2ccccc12)NC(=O)[C@H](CCC(=O)O)NC(=O)[C@H](CO)NC(=O)[C@H](Cc1c[nH]c2ccccc12)NC(=O)[C@@H]1CCCN1C(=O)[C@@H](N)CO)[C@@H](C)O)C(=O)N[C@@H](CO)C(=O)O [Peptide 184, SPWSEWTSCSTS] (H-SPWSEWTSCSTS-OH)
47
CC[C@H](C)[C@H](NC(=O)[C@H](CC(=O)O)NC(=O)[C@H](Cc1c[nH]c2ccccc12)NC(=O)[C@@H]1CCCN1C(=O)[C@H](CO)NC(=O)[C@H](Cc1c[nH]c2ccccc12)NC(=O)[C@@H]1CCCN1C(=O)CN)C(=O)N[C@@H](CS)C(=O)N[C@@H](CO)C(=O)N[C@H](C(=O)N[C@H](C(=O)O)[C@@H](C)O)C(C)C [Peptide 186, GPWSPWDICSVT] (H-GPWSPWDICSVT-OH)
8.5
CC(C)[C@H](NC(=O)[C@H](CO)NC(=O)[C@H](CS)NC(=O)[C@H](CO)NC(=O)[C@@H](N)CO)C(=O)N[C@H](C(=O)O)[C@@H](C)O [Peptide 238, SSCSVT] (H-SSCSVT-OH)
85

Lookup: Using known records, supply IC50 for CC(C)[C@H](NC(=O)[C@H](CO)NC(=O)[C@H](CS)NC(=O)[C@H](CO)NC(=O)[C@H](CO)NC(=O)[C@H](Cc1c[nH]c2ccccc12)NC(=O)[C@@H]1CCCN1C(=O)[C@H](CO)NC(=O)[C@@H](N)Cc1c[nH]c2ccccc12)C(=O)N[C@H](C(=O)O)[C@@H](C)O [Peptide 241, WSPWSSCSVT] (H-WSPWSSCSVT-OH)
Found: 35

Lookup: Report measured IC50; entry is CC(C)[C@H](NC(=O)[C@H](CO)NC(=O)[C@@H](N)CS)C(=O)N[C@H](C(=O)N[C@@H](CS)C(=O)NCC(=O)O)[C@@H](C)O [Peptide 187, CSVTCG] (H-CSVTCG-OH)
Found: 6

Lookup: Note IC50 for the compound shown: CC(C)[C@H](NC(=O)[C@H](CO)NC(=O)[C@@H](N)CO)C(=O)N[C@H](C(=O)N[C@@H](CS)C(=O)NCC(=O)O)[C@@H](C)O [Peptide 237, SSVTCG] (H-SSVTCG-OH)
Found: 58

Data provenance: patent US5770563A
